FYI, the data here is from patent US6867320B2.

Tested on: PGE2 production from IL-1β-stimulated MG-63 cells
Experimental Details: Suppressing action on PGE2 production from IL-1β-stimulated MG-63 cells
Type: cell-based
Condition Notes: Homo sapiens, IL-1β 1 ng/ml, 18 hours, read-out: PGE2 production suppression ratio
Protocol: 1. Suppressing Action on PGE2 Production from IL-1β-Stimulated MG-63 Cells (1) Method for Measurement An action of suppressing PGE2 production caused by interleukin (IL) 1β as an inflammatory stimulant was studied by the following method. […] The culture supernatant was collected, and the PGE2 concentration in the culture supernatant was measured by using EIA kit (CAYMAN). […]
Each entry below carries its recorded inhibition at 0.4 µM.

Form: compound = O=C(O)CCc1ccc(OCC2CCCC2)c(-c2ccc3c(ccn3C3CCCC3)c2)c1 ; inhibition at 0.4 µM = ≥ 50%

---
Looking up O=C(O)CCc1ccc(OCCC2CCCC2)c(-c2ccc3ccccc3c2)c1 , I found its inhibition at 0.4 µM recorded as ≥ 50%

Entry O=C(O)CCc1ccc(OCc2ccoc2)c(-c2ccc3[nH]ccc3c2)c1 ; inhibition at 0.4 µM = ≥ 50%

Reported inhibition at 0.4 µM ( O=C(O)CCc1cc(O)c(OCC2CCCC2)c(-c2ccc3ccccc3c2)c1 ) = ≥ 50%

In plain terms, Nc1nc2ccc(-c3cc(CCC(=O)O)ccc3OCC3CCCC3)cc2s1 has a documented inhibition at 0.4 µM of ≥ 50%

Record Cn1ncc2cc(-c3cc(CCC(=O)O)cc(F)c3OC3CCCC3)ccc21 . Reported inhibition at 0.4 µM: ≥ 50%

Short answer for O=C(O)CCc1ccc(OCc2ccccc2C(F)(F)F)c(-c2ccc3[nH]ccc3c2)c1 : inhibition at 0.4 µM was ≥ 50%

Record summary for O=C(O)CCc1ccc(OCC2CCCC2)c(-c2ccc3c(ccn3CCO)c2)c1 : reported inhibition at 0.4 µM = ≥ 50%

Briefly, inhibition at 0.4 µM measured for O=C(O)CCc1ccc(OCc2ccc3ccccc3c2)c(-c2ccc3[nH]ccc3c2)c1 : ≥ 50%
